- Assay Target: 5-hydroxytryptamine receptor 2B (Homo sapiens, UniProt P41595)
- Sequence (P41595 whole entry): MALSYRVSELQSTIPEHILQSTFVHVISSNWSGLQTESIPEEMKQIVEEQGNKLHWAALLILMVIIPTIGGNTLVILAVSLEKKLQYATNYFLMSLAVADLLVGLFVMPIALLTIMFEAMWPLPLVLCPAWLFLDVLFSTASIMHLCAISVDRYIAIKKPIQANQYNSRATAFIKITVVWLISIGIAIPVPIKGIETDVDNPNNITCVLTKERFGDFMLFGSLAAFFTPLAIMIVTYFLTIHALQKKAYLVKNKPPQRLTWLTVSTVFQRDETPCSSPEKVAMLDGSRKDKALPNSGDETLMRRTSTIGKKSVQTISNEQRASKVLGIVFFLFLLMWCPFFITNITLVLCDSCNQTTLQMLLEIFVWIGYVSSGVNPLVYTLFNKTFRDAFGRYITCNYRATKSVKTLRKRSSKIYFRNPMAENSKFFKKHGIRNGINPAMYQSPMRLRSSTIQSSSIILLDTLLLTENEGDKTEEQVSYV
- Assay Remarks: Agonist activity at human 5HT2B receptor expressed in HEK293 cells at 10 uM assessed as calcium flux by FLIPR assay relative to serotonin
- Assay type: functional, cell-based
Listing of recorded Emax by entry.
Quantity Kind: Emax (%)

[
  {
    "Molecule": "NC[C@H]1C[C@@H]1c1ccccc1",
    "Quantity Kind": "Emax",
    "Limit Operator": "=",
    "Recorded Result": 111
  },
  {
    "Molecule": "COc1cccc([C@H]2C[C@@H]2CN)c1 (relative stereo)",
    "Quantity Kind": "Emax",
    "Limit Operator": "=",
    "Recorded Result": 96
  },
  {
    "Molecule": "CC(C)(O)C#Cc1cccc([C@H]2C[C@@H]2CN)c1 (relative stereo)",
    "Quantity Kind": "Emax",
    "Limit Operator": "<",
    "Recorded Result": 12
  },
  {
    "Molecule": "NC[C@H]1C[C@@H]1c1ccc(C(F)(F)F)cc1 (relative stereo)",
    "Quantity Kind": "Emax",
    "Limit Operator": "=",
    "Recorded Result": 56
  },
  {
    "Molecule": "N[C@@H]1C[C@H]1c1ccccc1.N[C@H]1C[C@@H]1c1ccccc1 (racemic)",
    "Quantity Kind": "Emax",
    "Limit Operator": "=",
    "Recorded Result": 29
  },
  {
    "Molecule": "NC[C@@H]1C[C@H]1c1ccccc1 (relative stereo)",
    "Quantity Kind": "Emax",
    "Limit Operator": "=",
    "Recorded Result": 93
  },
  {
    "Molecule": "CC(=O)Nc1ccccc1[C@H]1C[C@@H]1CN (relative stereo)",
    "Quantity Kind": "Emax",
    "Limit Operator": "<",
    "Recorded Result": 12
  },
  {
    "Molecule": "NC[C@H]1C[C@@H]1c1ccc(C#CCCCCO)cc1 (relative stereo)",
    "Quantity Kind": "Emax",
    "Limit Operator": "<",
    "Recorded Result": 12
  },
  {
    "Molecule": "NC[C@H]1C[C@@H]1c1ccccc1Br",
    "Quantity Kind": "Emax",
    "Limit Operator": "=",
    "Recorded Result": 102
  },
  {
    "Molecule": "c1cc2c3c(c1)c1c(n3CCNC2)CCCC1",
    "Quantity Kind": "Emax",
    "Limit Operator": "<",
    "Recorded Result": 12
  }
]

---

- Assay Target: 5-hydroxytryptamine receptor 2A (Homo sapiens, UniProt P28223)
- Sequence (P28223 whole entry): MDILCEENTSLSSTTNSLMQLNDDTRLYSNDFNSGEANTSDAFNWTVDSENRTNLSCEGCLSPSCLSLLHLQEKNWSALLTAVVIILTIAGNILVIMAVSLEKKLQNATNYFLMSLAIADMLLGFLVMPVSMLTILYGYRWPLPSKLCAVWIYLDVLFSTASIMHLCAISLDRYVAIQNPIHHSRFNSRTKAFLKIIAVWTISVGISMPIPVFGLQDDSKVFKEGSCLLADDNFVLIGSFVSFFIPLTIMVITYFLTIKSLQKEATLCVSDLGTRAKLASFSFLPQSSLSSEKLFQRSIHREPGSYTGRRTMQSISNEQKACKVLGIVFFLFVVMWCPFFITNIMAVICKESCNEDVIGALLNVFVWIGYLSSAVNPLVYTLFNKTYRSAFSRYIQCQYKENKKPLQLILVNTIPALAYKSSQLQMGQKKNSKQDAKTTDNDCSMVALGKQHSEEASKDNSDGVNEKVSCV
- Assay Remarks: Agonist activity at human 5HT2A receptor expressed in HEK293 cells at 10 uM assessed as calcium flux by FLIPR assay relative to serotonin
- Assay type: functional, cell-based
Listing of recorded Emax by entry.

[
  {
    "Molecule": "NC[C@H]1C[C@@H]1c1ccccc1Cl (relative stereo)",
    "Limit Operator": "=",
    "Emax (%)": 54
  },
  {
    "Molecule": "NC[C@@H]1C[C@H]1c1ccccc1Br",
    "Limit Operator": "<",
    "Emax (%)": 12
  },
  {
    "Molecule": "NC[C@H]1C[C@@H]1c1ccccc1C(F)(F)F (relative stereo)",
    "Limit Operator": "<",
    "Emax (%)": 12
  },
  {
    "Molecule": "Cc1cccc([C@H]2C[C@@H]2CN)c1.Cl (relative stereo)",
    "Limit Operator": "=",
    "Emax (%)": 86
  },
  {
    "Molecule": "NC[C@H]1C[C@@H]1c1ccccc1-c1cc2ccccc2o1 (relative stereo)",
    "Limit Operator": "<",
    "Emax (%)": 12
  },
  {
    "Molecule": "Cc1cc([C@H]2C[C@@H]2CN)ccc1F (relative stereo)",
    "Limit Operator": "=",
    "Emax (%)": 73
  },
  {
    "Molecule": "NC[C@H]1C[C@@H]1c1ccc(Cl)cc1 (relative stereo)",
    "Limit Operator": "=",
    "Emax (%)": 64
  },
  {
    "Molecule": "Cc1cccc([C@H]2C[C@@H]2CN)c1C (relative stereo)",
    "Limit Operator": "=",
    "Emax (%)": 59
  },
  {
    "Molecule": "NC[C@H]1C[C@@H]1c1cccc(C#CCCCCO)c1 (relative stereo)",
    "Limit Operator": "<",
    "Emax (%)": 12
  },
  {
    "Molecule": "NC[C@H]1C[C@@H]1c1ccc(Cl)cc1F (relative stereo)",
    "Limit Operator": "=",
    "Emax (%)": 83
  }
]
